biological target: HiBgl3A (Mycothermus thermophilus, UniProt A0A191KCR1); test: pNPG hydrolysis, Dixon plot; format: biochemical; details: read-out: Ki (mM) / pNPG; substrate pNPG 0.75 and 1 mM, glucose 5-50 mM; product inhibition, mode not stated
Sequence (A0A191KCR1 entry or part of it): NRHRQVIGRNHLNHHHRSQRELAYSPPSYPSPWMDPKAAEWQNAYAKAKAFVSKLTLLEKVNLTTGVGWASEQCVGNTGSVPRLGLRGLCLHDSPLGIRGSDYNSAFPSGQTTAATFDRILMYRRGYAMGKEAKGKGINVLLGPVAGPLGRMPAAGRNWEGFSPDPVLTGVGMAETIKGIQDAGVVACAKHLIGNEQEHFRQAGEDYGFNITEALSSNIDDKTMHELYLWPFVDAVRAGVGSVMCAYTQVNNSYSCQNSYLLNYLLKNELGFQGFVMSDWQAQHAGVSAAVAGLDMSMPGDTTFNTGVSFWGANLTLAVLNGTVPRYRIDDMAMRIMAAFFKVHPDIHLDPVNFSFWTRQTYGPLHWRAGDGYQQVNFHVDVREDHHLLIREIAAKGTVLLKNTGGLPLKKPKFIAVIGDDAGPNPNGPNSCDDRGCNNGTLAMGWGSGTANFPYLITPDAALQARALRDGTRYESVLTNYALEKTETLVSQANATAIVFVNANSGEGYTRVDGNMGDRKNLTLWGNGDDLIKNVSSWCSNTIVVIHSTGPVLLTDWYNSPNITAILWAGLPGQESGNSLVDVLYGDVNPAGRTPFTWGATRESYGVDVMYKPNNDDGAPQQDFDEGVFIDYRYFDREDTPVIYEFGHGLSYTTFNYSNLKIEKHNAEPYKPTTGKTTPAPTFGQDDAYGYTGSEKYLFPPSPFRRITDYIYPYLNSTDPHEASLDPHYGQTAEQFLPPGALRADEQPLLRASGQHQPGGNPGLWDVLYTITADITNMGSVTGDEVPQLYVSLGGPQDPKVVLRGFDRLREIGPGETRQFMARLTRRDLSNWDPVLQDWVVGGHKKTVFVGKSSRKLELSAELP
result.type: Ki (mM)
Answers are plain numbers, in mM.

Param item = OC[C@H]1OC(O)[C@H](O)[C@@H](O)[C@@H]1O (stereo partly shown) ; retrieve measured Ki.
25

---

target: HiBgl3B (Mycothermus thermophilus, UniProt A0A191KCR2); construct: GenBank printed as KT203372, same as Hibgl3C, so probably a misprint of KT203371; assay: pNPG hydrolysis, Dixon plot; format: biochemical; details: read-out: Ki (mM) / pNPG; substrate pNPG 0.75 and 1 mM, glucose 5-50 mM; product inhibition, mode not stated
Sequence (A0A191KCR2 entry or part of it): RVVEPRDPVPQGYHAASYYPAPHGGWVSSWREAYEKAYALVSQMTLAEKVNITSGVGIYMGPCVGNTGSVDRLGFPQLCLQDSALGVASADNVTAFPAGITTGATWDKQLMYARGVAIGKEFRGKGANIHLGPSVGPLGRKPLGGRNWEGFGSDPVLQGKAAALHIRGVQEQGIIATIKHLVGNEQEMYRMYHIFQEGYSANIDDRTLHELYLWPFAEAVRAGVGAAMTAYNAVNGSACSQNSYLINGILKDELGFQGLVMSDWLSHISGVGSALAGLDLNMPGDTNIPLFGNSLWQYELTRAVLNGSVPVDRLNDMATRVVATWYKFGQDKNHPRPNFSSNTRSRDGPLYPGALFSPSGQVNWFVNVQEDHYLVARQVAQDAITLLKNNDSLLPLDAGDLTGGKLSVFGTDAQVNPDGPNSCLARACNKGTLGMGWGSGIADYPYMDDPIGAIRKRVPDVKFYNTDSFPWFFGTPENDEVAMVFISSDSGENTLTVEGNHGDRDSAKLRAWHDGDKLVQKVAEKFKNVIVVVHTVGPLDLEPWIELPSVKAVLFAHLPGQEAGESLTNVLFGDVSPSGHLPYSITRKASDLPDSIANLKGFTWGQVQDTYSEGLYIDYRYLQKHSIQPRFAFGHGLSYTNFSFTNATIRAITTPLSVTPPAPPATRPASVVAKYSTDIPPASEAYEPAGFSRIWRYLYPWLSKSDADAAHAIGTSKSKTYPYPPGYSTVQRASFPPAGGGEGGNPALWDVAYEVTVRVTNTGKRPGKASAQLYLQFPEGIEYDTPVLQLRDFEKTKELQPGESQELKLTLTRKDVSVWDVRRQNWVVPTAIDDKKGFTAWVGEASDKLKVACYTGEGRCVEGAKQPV
result.type: Ki
A complete answer gives the number and then names the unit.

Param item = OC[C@H]1OC(O)[C@H](O)[C@@H](O)[C@@H]1O (stereo partly shown) ; retrieve measured Ki.
55.2 mM
